# Experimental details: In vivo oral absorption in rats, plasma 5-FU (HPLC)
# Condition description: plasma; rat, oral, 5-FU 20 mg/kg
Measured parameter: half-life (min)

Compound | Measured number
O=c1[nH]cc(F)c(=O)[nH]1 [Composition 5-FU, 5-fluorouracil] | 48.8

====

# Experimental details: In vitro intestinal cell membrane permeability across Caco-2 cell monolayer
# Format: in vitro ADME
# Condition description: human, Solution in HBSS (control), apical to basolateral, 37° C., read-out: Apparent permeability (Papp)

Molecule | Papp A→B at 5 h, 384.4 μM / ×10⁻⁶ cm/s
O=c1[nH]cc(F)c(=O)[nH]1 [Composition 5-FU, 5-fluorouracil] | 3.46

meta.source: patent US11452705B2
